Lab note: pIC50 readings collected with His-tagged full-length RSK2 (RPS6KA3) (Homo sapiens, UniProt P51812) for the following compounds.
Sequence (P51812 whole entry): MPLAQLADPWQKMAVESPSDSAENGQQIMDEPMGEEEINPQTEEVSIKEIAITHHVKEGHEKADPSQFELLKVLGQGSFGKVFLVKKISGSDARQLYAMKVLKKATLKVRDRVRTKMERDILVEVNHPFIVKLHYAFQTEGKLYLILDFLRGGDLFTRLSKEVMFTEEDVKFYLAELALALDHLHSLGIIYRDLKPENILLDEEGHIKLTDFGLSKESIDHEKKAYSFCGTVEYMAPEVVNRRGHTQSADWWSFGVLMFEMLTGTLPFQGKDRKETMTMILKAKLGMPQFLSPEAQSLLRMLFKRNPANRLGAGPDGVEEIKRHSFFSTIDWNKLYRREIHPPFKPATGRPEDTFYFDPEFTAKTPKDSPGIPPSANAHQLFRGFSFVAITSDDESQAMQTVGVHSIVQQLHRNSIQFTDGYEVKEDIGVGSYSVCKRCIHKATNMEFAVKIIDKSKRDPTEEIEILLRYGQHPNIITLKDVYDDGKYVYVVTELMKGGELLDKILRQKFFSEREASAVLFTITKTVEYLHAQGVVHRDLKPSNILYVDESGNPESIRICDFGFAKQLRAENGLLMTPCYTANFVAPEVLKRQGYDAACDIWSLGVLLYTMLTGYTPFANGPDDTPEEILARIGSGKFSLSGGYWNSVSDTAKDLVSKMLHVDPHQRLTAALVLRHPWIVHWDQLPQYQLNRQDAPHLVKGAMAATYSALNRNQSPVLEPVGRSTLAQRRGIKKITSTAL
pIC50: −log10 of the molar value.

Here's what some known entries look like.
{"COMPOUND": "COc1ccc(N2C(=O)[C@@H](C)N(C3CCOCC3)c3nc(Nc4cc(F)c5[nH]c(=O)oc5c4)ncc32)cc1C#N", "pIC50": "≥ 7.00"}
{"COMPOUND": "CC(C)CCN1c2nc(Nc3ccc(CC(=O)N(C)C)cc3)ncc2N(c2ccccc2)C(=O)C1C (stereo not shown)", "pIC50": "6.00 to 7.00"}
{"COMPOUND": "CC[C@@H]1C(=O)N(c2ccc(N(C)C)nc2)c2cnc(Nc3cc(F)c4[nH]ncc4c3)nc2N1C1CCCCC1", "pIC50": "≥ 7.00"}

Then this compound:
Could you tell me which pIC50 is on file for COc1ccc(N2C(=O)[C@@H](C)N(C3CCCCC3)c3nc(Nc4cnc5[nH]ncc5c4)ncc32)cc1C#N ?
≥ 7.00
